system: ACHN renal; test: NCI-60 one-dose screen, 48 h; settings: 10 µM unless noted
This is part of a sample that, as a whole, favours compounds with a hit. Of some 83,000 tested, about 20% had one in any assay. Calls of active or inactive are those of the source. The calls were made as follows: active = growth percent below 10; inactive = the rest.
The categories you may choose from are 1 for active, -1 for inactive

IN: Just curious, what result did Cc1ccc(C(=O)C(c2c[nH]c3ccccc23)c2c[nH]c3ccccc23)cc1 get here?
OUT: -1

IN: Record request — test call for Cc1cccc(NC(=O)CN2CCN(c3ncnc4c3cnn4-c3ccccc3)CC2)c1
OUT: -1

IN: I would be grateful if you could indicate the recorded call for COc1c(F)ccc(C(=O)Nc2ccc3nc(NC(=O)C4CCCN(S(=O)(=O)c5ccc(Br)c(F)c5)C4)sc3c2)c1F (centres undefined) .
OUT: -1

IN: // param item: NS(=O)(=O)c1ccc(-n2cc(-c3cccc(NC(=O)c4cc(N5CCOCC5)cc(C(F)(F)F)c4)c3)nn2)cc1 ; yields the recorded call
OUT: -1

IN: // outcome(item) with item = S=C(NCCc1ccccc1)Nc1ccc(OCc2nc3ccccc3[nH]2)cc1
OUT: -1

###

Examples of compounds with documented growth follow.
system: TK-10 renal; experiment: NCI-60 one-dose screen, 48 h (100 = growth as untreated, 0 = no growth, -100 = all killed); details: 10 µM unless noted
This is part of a sample that, as a whole, favours compounds with a hit. Of some 83,000 tested, about 20% had one in any assay.
Express it in %; write the number only.

COMPOUND	ASSAY TARGET	growth [%]
CC1=C(C(=O)OCc2ccccc2)C(c2ccc(-n3cncn3)cc2)n2c(nc3ccccc32)N1 (stereo unspecified)	TK-10 renal	89.7

Next compound, growth to be filled in.
IN: I'm curious: which growth was measured for N#Cc1c(-c2ccccc2Cl)cc(-c2ccc3ccccc3c2)[nH]c1=O tested on TK-10 renal?
OUT: -0.132

###

Recorded growth by entry
tested on: SF-295 CNS; assay: NCI-60 one-dose screen, 48 h (100 = growth as untreated, 0 = no growth, -100 = all killed); settings: 10 µM unless noted
The panel holds about 83,000 compounds, 20% with a hit somewhere; the sample as a whole holds those more often. Active and inactive are the calls of the source. Rule for the calls: active = growth percent below 10; inactive = the rest.

Reference set, count: 2
COMPOUND	growth
COC(=O)C[C@](O)(CCCC(C)(C)O)C(=O)O[C@H]1C(OC)=C[C@@]23CCCN2CCc2cc4c(cc2[C@@H]13)OCO4	-22.8% (active)
COc1cc(-c2cc(-c3cccc(OCC(=O)O)c3)[nH]c(=O)c2C#N)cc(OC)c1OC	97.6% (inactive)

Read the next record carefully.
IN: Which growth is reported with SF-295 CNS for this entry: CN(C)c1nc(NCCNS(=O)(=O)c2ccc(C(=O)/C=C/c3ccc(C(F)(F)F)cc3)cc2)nc(Nc2ccc(F)cc2)n1 ?
OUT: -14.6% (active)

###

test system: MDA-MB-435 melanoma; test: NCI-60 one-dose screen, 48 h (100 = growth as untreated, 0 = no growth, -100 = all killed); details: 10 µM unless noted
About 83,000 compounds went through this panel and 20% of them were active in at least one assay; those are over-represented in the sample as a whole.
Cut-off 40% on growth, inclusive. At or above means T; below means F.

The following compounds have reported results that may help.
COMPOUND	GROUP
Nc1nc(C(F)(F)F)cs1	T
Nc1nnc(-c2c[nH]c3ncc(Br)cc23)c(-c2c[nH]c3ccc(F)cc23)n1	F
C=C1CC[C@@H]2[C@]3(C)COC(c4ccco4)O[C@@H]3CC[C@@]2(C)[C@@H]1C/C=C1/C(=O)OCC1OC(C)=O (stereo partly drawn)	F
CN(C)c1nc(NCCNS(=O)(=O)c2ccc(C3=Nc4c(N)nc(N)nc4NC(c4ccccc4)C3)cc2)nc(Nc2ccc(F)cc2)n1 (stereo not drawn)	T

IN: Could you tell me if the measured growth of CC(=O)Nc1cccc(Nc2nc(N[C@H]3CCCc4ccccc43)c3ccccc3n2)c1 reaches 40% or more?
OUT: T

IN: Hi, just wondering whether O=C(Nc1cccc(-n2cnc3cc(-c4ccc(O)cc4)ccc32)c1)C1CC1 shows growth of 40% or higher.
OUT: F

IN: Can COc1ccc(C(=O)/C=C/c2cccc(Br)c2)cc1S(N)(=O)=O be said to have growth at or above 40%?
OUT: F

IN: Could you tell me if the measured growth of N#Cc1c(-c2cccc(Cl)c2Cl)cc(-c2c[nH]c3ccccc23)[nH]c1=O reaches 40% or more?
OUT: T

IN: Is reported growth greater than or equal to 40% here: N/N=C(\N)c1c(N)nc(=S)[nH]c1-c1ccc(Cl)cc1Cl
OUT: T

IN: Reported growth at or above 40%? CN(C)c1nc(NCCNS(=O)(=O)c2ccc(C(=O)/C=C/c3ccc(Cl)cc3)cc2)nc(Nc2ccc(F)cc2)n1
OUT: F

IN: Decide: is the reported value of growth for O=C(N1c2ccccc2Sc2ccccc21)n1ccc2cccnc21 equal to or greater than 40%?
OUT: F

IN: Decide: is the reported value of growth for Cc1ccc(S(=O)(=O)c2nc(S(=O)(=O)c3ccc(C)cc3)c(Cl)s2)cc1 equal to or greater than 40%?
OUT: T

IN: Does the reported growth for C#CCOc1cc(N(CC)CC)ccc1C(C(=O)NC(C)(C)C)N(C(=O)C1CCc2cc(F)ccc2O1)c1cc(C)cc(C)c1 (stereo not drawn) fall at or above the 40% mark?
OUT: T

IN: Hi, just wondering whether O=C(N=Nc1c(O)[nH]c2ccc(Cl)cc12)c1ccc2nc(-c3ccccc3)[nH]c2c1 shows growth of 40% or higher.
OUT: T

IN: I'd appreciate it if you could say whether COc1cc(-c2nc3ccc(C)cc3[nH]2)ccc1OCc1nnc(-c2ccc(Br)cc2)o1 has growth at least equal to 40%.
OUT: T

IN: Test whether the compound COc1cc2c(c(OC)c1OC)C(=O)CC(c1cccc(NC(=O)c3cc(NC(=O)[C@H](CO)NC(=O)OC(C)(C)C)ccc3Cl)c1)O2 (stereo partly drawn) records growth of 40% or higher.
OUT: F

IN: Quick check: does CC(=O)N1CCN(Cc2ccc3c(NNC(=O)c4cnccn4)nc4cc(F)ccc4n23)CC1 have growth greater than or equal to 40%?
OUT: F

###

system: TK-10 renal; test: NCI-60 one-dose screen, 48 h; settings: 10 µM unless noted
Compounds without any hit were thinned out: in the full panel of roughly 83,000, 20% have a hit. The source made the active and inactive calls. The calls were made as follows: active = growth percent below 10; inactive = the rest.
Outcome field: choose from active, inactive

COMPOUND SMILES	ASSAY TARGET	GROUP
O=C(NN1C(=O)/C(=C/C=C/c2ccc([N+](=O)[O-])o2)SC1=S)c1ccc(Cl)cc1	TK-10 renal	active
O=C(COc1ccc(NC(=O)Nc2ccc(Cl)cc2)cc1)N/N=C/c1ccccc1	TK-10 renal	active
CCOC(=O)c1ccc(Nc2nc(NN)nc(-c3ccc(F)cc3)c2C#N)cc1	TK-10 renal	inactive
COc1ccc(/C=C2\C(=O)Nc3ccc(Cl)cc32)cc1OCc1ccccn1	TK-10 renal	inactive
O=C(N=Nc1c(O)[nH]c2ccc(Cl)cc12)c1ccc2nc(-c3ccccc3)[nH]c2c1	TK-10 renal	inactive

IN: I would be grateful if you could indicate the recorded call for CN(C)CCCNC(=O)c1cc(NC(=O)c2cc(NC(=O)c3ccc(/C=C/c4ccccc4)cc3)cn2C)cn1C .
OUT: inactive

###

System: EKVX NSCLC
Assay: NCI-60 one-dose screen, 48 h
Settings: 10 µM unless noted
Method: Growth inhibition of the EKVX human Non-Small Cell Lung tumor cell line is measured as a screen for anti-cancer activity. Cells are grown in 96 well plates and exposed to the test compound for 48 hours. Compounds are tested at a single concentration, which is 10^-5 M for most compounds. The reported endpoint is percent growth (GI% or GIPRCNT), where numbers from 0 - 100% represent growth inhibition, and numbers from -100% - 0 represent cell death. […]
Compounds without any hit were thinned out: in the full panel of roughly 83,000, 20% have a hit. The source made the active and inactive calls. The calls were made as follows: active = growth percent below 10; inactive = the rest.
Pick from active, inactive when you respond.

MOLECULE	GROUP
CN(C)CCOc1ccc(C(=O)C2[C@H](c3ccc(Cl)cc3)[C@@H](c3ccccc3)NC23C(=O)Nc2ccc(Br)cc23)cc1 (stereo partly drawn)	inactive
COc1ccccc1C(=O)NN1C(=O)/C(=C/C2=Cc3ccccc3OC2)SC1=S	inactive
O=C(O)c1ccc(-c2ccc(/C=N/NC(=O)c3[nH]c4ccc(Br)cc4c3-c3ccccc3)o2)cc1	inactive
CC12CC[C@@H]3[C@]4(C)COC(c5cn[nH]c5-c5cccc(Cl)c5)O[C@@H]4CC[C@@]3(C)[C@@H]1CC(C1=CCOC1=O)O2 (stereo partly drawn)	inactive
COc1ccc2oc3c4[nH]c5ccccc5c4c4c(c3c2c1)C(=O)N(C(=O)OC(C)(C)C)C4=O	active
COc1ccc(C(=O)/C=C/c2ccc(OCc3ccc(F)cc3)c(OC)c2)cc1OC	inactive
COc1ccc(C(=O)/C=C/c2ccc3ccccc3c2)cc1S(N)(=O)=O	active
Cn1cc(-c2nnc(N)nc2-c2c[nH]c3ccc(F)cc23)c2cccnc21	inactive

IN: What call does the record list for O=C1NC(=O)c2c1c1c3cc(Br)ccc3[nH]c1c1oc3ccc(F)cc3c21 ?
OUT: inactive

IN: Recorded call for O=S(=O)(Nc1cccc(-n2cnc3cc(-c4ccc(O)cc4)ccc32)c1)C1CC1 ?
OUT: inactive

IN: Called result for CC1(c2cc3cc(Cl)ccc3oc2=O)NC(=O)c2c(/C=C/C(=O)OC3CC4CCC3(C)C4(C)C)cccc2N1 (stereo not drawn)
OUT: inactive

IN: Returns: the outcome recorded for N#Cc1c(-c2ccccc2Cl)cc(-c2ccc3ccccc3c2)[nH]c1=O in this assay.
OUT: inactive

IN: Each molecule tested received a call. Report the one for COc1cccc(COc2ccc(NC(=O)Nc3ccc(Cl)c(C(F)(F)F)c3)cc2)c1 .
OUT: inactive
